Record form. Attribute: IC50. Fill in for each entry.
- target desc: Recombinant Human MMP-13 (Homo sapiens)
- Construct: purchased R&D systems 511-MM
- experimental details: MMP-13 inhibitory activity (MMP-13 specific fluorescent substrate with quencher)
- Type: biochemical
- test parameters: Experimental Example 3; read-out: IC50 MMP13

See these solved cases before continuing.
QUERY: Lab request: please report IC50 under test system Recombinant Human MMP-13 (Homo sapiens) for CNC(=O)Cc1ccc([C@@H]2C[C@]2(NS(=O)(=O)c2ccc(-c3cc(C(F)(F)F)on3)s2)C(=O)O)cc1
RESULT: < 100 nM

QUERY: Also check C=C(Cl)c1cnn(-c2ccc(S(=O)(=O)N[C@@]3(C(=O)O)C(C)[C@@H]3c3ccccc3)s2)c1 (some centres unmarked)
RESULT: < 100 nM

Please give IC50, item by item, for the list that follows.
1. O=C(O)C1(NS(=O)(=O)c2ccc(-c3ccc(Cl)cc3)s2)C2CCNc3ccccc3C21 (centres unmarked)
2. O=C(O)C1(NS(=O)(=O)c2cn3cc(-c4ccccc4)nc3s2)CC1c1ccccc1 (centres unmarked)
3. O=C(O)C1(NS(=O)(=O)c2ccc(-c3cc(C(F)(F)F)on3)s2)C2CCc3ccccc3C21 (centres unmarked)

RESULT:
< 100 nM
< 100 nM
< 100 nM

Value sought for every listed molecule: IC50.
1. C[C@]1(c2ccccc2)C[C@@]1(NS(=O)(=O)c1ccc(-c2cccc(C(=O)O)c2)s1)C(=O)O
2. COCc1cn2cc(S(=O)(=O)N[C@@]3(C(=O)O)C[C@]3(C)c3ccccc3)sc2n1
3. CC1(c2ccc(F)cc2)CC1(NS(=O)(=O)c1ccc(-c2cc(C(F)(F)F)on2)s1)C(=O)O (centres unmarked) [Example 2-339]

RESULT:
1. ≥ 10000 nM
2. ≥ 1000 nM
3. < 1000 nM

###

Task for the reader: assign each of the following compounds its reported IC50.
- target desc: Recombinant Human MMP-13 (Homo sapiens)
- Construct: purchased R&D systems 511-MM
- experimental details: MMP-13 inhibitory activity (MMP-13 specific fluorescent substrate with quencher)
- Format: biochemical
- test parameters: Experimental Example 3; read-out: IC50 MMP13
- Procedure: Inhibitory activity of tested compounds on MMP-13 was measured using MMP-13 specific fluorescent substrate with quencher. The enzyme and substrate were diluted with Tris-HCl buffer, and test compounds were diluted with dimethyl sulfoxide (DMSO). Test compounds and the enzyme (Recombinant Human MMP-13: R&D systems, 511-MM) were added into 96-well plate. The reaction was initiated by adding synthetic substrate (7-MCA-Pro-CHA-Gly-NVal-His-Ala-DPA: enzyme systems products, Met-06) into the plate. […]

QUERY: Which measured IC50 belongs to CCN(CC)CC1(c2ccccc2)CC1(NS(=O)(=O)c1ccc(-c2cc(C(F)(F)F)on2)s1)C(=O)O (centres unmarked) , tested on Recombinant Human MMP-13 (Homo sapiens)?
RESULT: ≥ 1000 nM

QUERY: What about CC(C)SCC1(c2ccccc2)CC1(NS(=O)(=O)c1ccc(-c2ccc(Cl)cc2)s1)C(=O)O (centres unmarked) ?
RESULT: < 1000 nM

QUERY: And then CC1[C@H](c2ccccc2)[C@]1(NS(=O)(=O)c1ccc(OCc2ccc(Cl)cc2Cl)cc1)C(=O)NO (some centres unmarked) , what is it?
RESULT: ≥ 1000 nM

QUERY: Request: CC(=O)N1CCC2C(c3ccccc31)C2(NS(=O)(=O)c1ccc(-c2ccc(Cl)cc2)s1)C(=O)O (centres unmarked)
RESULT: < 100 nM

List reported IC50 for each of these compounds:
1. COc1ccc(CN2CCN(S(=O)(=O)N[C@@]3(C(=O)O)C(C)[C@@H]3c3ccccc3)CC2)cc1 (some centres unmarked)
2. O=C(O)C1(NS(=O)(=O)c2ccc(-c3cc(C(F)(F)F)on3)s2)C2Cc3ccccc3C21 (centres unmarked)
3. O=C(O)C1(NS(=O)(=O)c2ccc(-c3cc(C(F)(F)F)on3)s2)CC1c1cc(CCO)on1 (centres unmarked) [Example 2-316]
4. O=C(c1ccc(Cl)cc1)c1ccc(S(=O)(=O)N[C@@]2(C(=O)O)C[C@@H]2c2ccccc2)s1
5. CC1[C@H](c2ccccc2)[C@]1(NS(=O)(=O)c1ccc(-n2ccc(C(F)(F)F)n2)s1)C(=O)O (some centres unmarked)
6. O=C(O)C1(NS(=O)(=O)c2ccc(-c3ccc(Cl)cn3)s2)C2CCCc3ccccc3C21 (centres unmarked)

RESULT:
≥ 1000 nM
< 1000 nM
≥ 10000 nM
≥ 1000 nM
< 1000 nM
< 100 nM

Give measured IC50 for every item shown.
1. C[C@]1(c2ccccc2)C[C@@]1(NS(=O)(=O)c1ccc(-c2ccc(F)c(F)c2)s1)C(=O)O
2. O=C(O)[C@@]1(NS(=O)(=O)c2ccc(-c3cc(C(F)(F)F)on3)s2)C[C@H]1c1ccc(CCO)cc1
3. CC1[C@H](c2ccccc2)[C@]1(NS(=O)(=O)c1ccc(-c2ccc(C(F)(F)F)cc2)s1)C(=O)O (some centres unmarked)

RESULT:
< 1000 nM
< 100 nM
< 100 nM

# return IC50 for each item in the list
1. C[C@]1(c2cccc(Cl)c2)C[C@@]1(NS(=O)(=O)c1ccc(-c2cc(C(F)(F)F)on2)s1)C(=O)O
2. C[C@]1(c2ccccc2)C[C@@]1(NS(=O)(=O)c1ccc(-c2ncc(Br)cn2)s1)C(=O)O
3. C[C@]1(c2ccccc2)C[C@@]1(NS(=O)(=O)c1ccc(-c2ccc(F)c(C#N)c2)s1)C(=O)O
4. O=C(O)C1(NS(=O)(=O)c2ccc(-c3cc(C(F)(F)F)on3)s2)C2CCC(O)c3ccccc3C21 (centres unmarked) [Example 2-438]

RESULT:
["< 1000 nM", "< 1000 nM", "≥ 1000 nM", "< 100 nM"]

Please go through the list and note IC50 for each compound.
1. C[C@]1(c2ccccc2)C[C@@]1(NS(=O)(=O)c1ccc(-n2cc(C(F)(F)F)cn2)cc1)C(=O)O
2. C[C@]1(c2ccccc2)C[C@@]1(NS(=O)(=O)c1ccc(-c2cccc(N)c2)s1)C(=O)O
3. C[C@]1(c2ccccc2)C[C@@]1(NS(=O)(=O)c1ccc(-c2ccc(Cl)cc2F)s1)C(=O)O
4. CNC(=O)CCc1ccc([C@H]2C[C@@]2(NS(=O)(=O)c2ccc(-c3cc(C(F)(F)F)on3)s2)C(=O)O)cc1
5. C[C@]1(c2ccccc2)C[C@@]1(NS(=O)(=O)c1ccc(-c2cc(O)c(F)c(F)c2)s1)C(=O)O
6. O=C(O)C1(NS(=O)(=O)c2ccc(-c3ccc(Cl)cc3)s2)CC1(COCc1ccccc1)c1ccccc1 (centres unmarked)

RESULT:
< 100 nM
< 100 nM
< 100 nM
< 100 nM
≥ 1000 nM
< 1000 nM

Provide IC50 for all items below, preserving their order.
1. O=C(O)C1(NS(=O)(=O)c2ccc(-c3cc(C(F)(F)F)on3)s2)CC1(CN1CCCC1)c1ccccc1 (centres unmarked)
2. CC1[C@H](c2ccccc2)[C@]1(NS(=O)(=O)c1ccc(-c2ccc(Cl)c(F)c2)s1)C(=O)O (some centres unmarked)
3. COCCCC1(c2ccccc2)CC1(NS(=O)(=O)c1ccc(-c2ccc(Cl)cc2)s1)C(=O)O (centres unmarked)
4. O=C(Nc1ccc(S(=O)(=O)N[C@@]2(C(=O)O)C[C@@H]2c2ccccc2)cc1)c1ccccc1
5. O=C(NC[C@H]1CCCO1)OCC1(c2ccccc2)CC1(NS(=O)(=O)c1ccc(-c2cc(C(F)(F)F)on2)s1)C(=O)O (some centres unmarked)

RESULT:
≥ 1000 nM
< 100 nM
< 1000 nM
≥ 1000 nM
< 1000 nM

QUERY: # get_value(readout= IC50, system= Recombinant Human MMP-13 (Homo sapiens)) for CC1[C@H](c2ccccc2)[C@]1(NS(=O)(=O)c1ccc(-c2cc(C(F)F)on2)s1)C(=O)O (some centres unmarked)
RESULT: < 100 nM

###

- target desc: UniProt P03956
- Sequence (P03956 100-469): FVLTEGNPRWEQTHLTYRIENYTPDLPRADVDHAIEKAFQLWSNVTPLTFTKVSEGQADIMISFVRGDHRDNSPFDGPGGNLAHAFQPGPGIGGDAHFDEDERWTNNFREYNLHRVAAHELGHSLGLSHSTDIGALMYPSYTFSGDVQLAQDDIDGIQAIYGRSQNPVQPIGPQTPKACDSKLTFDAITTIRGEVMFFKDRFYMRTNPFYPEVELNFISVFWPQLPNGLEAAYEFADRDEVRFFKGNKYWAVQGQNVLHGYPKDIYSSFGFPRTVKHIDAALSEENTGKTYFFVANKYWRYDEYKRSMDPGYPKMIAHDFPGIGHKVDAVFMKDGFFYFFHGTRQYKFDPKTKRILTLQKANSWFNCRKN
- experimental details: MMP-1 inhibitory action (Type I collagen Activity Measurement kit, FITC-labeled collagen type I)
- Type: biochemical
- test parameters: Experimental Example 2; read-out: IC50 MMP1
- Method: For MMP-1 Assay, Type I collagen Activity Measurement kit (YAGAI YU-72013) modified to a 96-well plate format was used. The principle of the kit is based on the property of collagen that becomes soluble in ethanol after being cleaved by MMP-1. […] The reaction was terminated by addition of Tris-HCl buffer containing ethanol. […] The collagenase activity of MMP-1 was determined by measuring FITC fluorescence intensity (excitation wavelength 485 nm, emission wavelength 530 nm) of each well. […]
readout kind: IC50

Could you report IC50 for every entry in the following list?
1. CN(c1ccccc1)c1ccc(S(=O)(=O)N[C@@]2(C(=O)O)C[C@]2(C)c2ccccc2)s1 [Example 2-515]
2. NCCc1ccc([C@H]2C[C@@]2(NS(=O)(=O)c2ccc(-c3cc(C(F)(F)F)on3)s2)C(N)=O)cc1 [Example 2-300]

RESULT:
["≥ 1000 nM", "≥ 1000 nM"]

Hi team, please reply with IC50 for each item in this list.
1. C[C@]1(c2ccccc2)C[C@@]1(NS(=O)(=O)c1ccc(-c2ncc(F)cc2F)s1)C(=O)O [Example 2-466]
2. O=C(O)C1(NS(=O)(=O)c2ccc(-c3ccc(Cl)cc3)s2)CC1(CNCc1nccs1)c1ccccc1 (stereo not shown) [Example 2-393]
3. CS(=O)(=O)CC1(c2ccccc2)CC1(NS(=O)(=O)c1ccc(-c2ccc(Cl)cc2)s1)C(=O)O (stereo not shown) [Example 2-440]

RESULT:
1: ≥ 1000 nM; 2: ≥ 1000 nM; 3: ≥ 10000 nM

Items follow; give IC50 for each.
1. CC(=O)Nc1cccc(-c2ccc(S(=O)(=O)N[C@@]3(C(=O)O)C[C@]3(C)c3ccccc3)s2)c1 [Example 2-480]
2. COc1ccc(CN2CCN(S(=O)(=O)N[C@@]3(C(=O)O)C(C)[C@@H]3c3ccccc3)CC2)cc1 (stereo partly shown) [Example 2-536]

RESULT:
< 1000 nM
≥ 1000 nM
